target: Glucagon-like peptide 1 receptor (Homo sapiens) (UniProt P43220); test: qHTS of GLP-1 Receptor Agonists: LOPAC Validation (AID 624148); details: GLP-1R agonist cell assay; series mostly up to 46.1 µM;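 note: luminescence from a luciferase reporter switched on by cAMP; 0% is about no effect; higher luminescence signal means agonism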
Sequence (P43220 whole entry, looked up): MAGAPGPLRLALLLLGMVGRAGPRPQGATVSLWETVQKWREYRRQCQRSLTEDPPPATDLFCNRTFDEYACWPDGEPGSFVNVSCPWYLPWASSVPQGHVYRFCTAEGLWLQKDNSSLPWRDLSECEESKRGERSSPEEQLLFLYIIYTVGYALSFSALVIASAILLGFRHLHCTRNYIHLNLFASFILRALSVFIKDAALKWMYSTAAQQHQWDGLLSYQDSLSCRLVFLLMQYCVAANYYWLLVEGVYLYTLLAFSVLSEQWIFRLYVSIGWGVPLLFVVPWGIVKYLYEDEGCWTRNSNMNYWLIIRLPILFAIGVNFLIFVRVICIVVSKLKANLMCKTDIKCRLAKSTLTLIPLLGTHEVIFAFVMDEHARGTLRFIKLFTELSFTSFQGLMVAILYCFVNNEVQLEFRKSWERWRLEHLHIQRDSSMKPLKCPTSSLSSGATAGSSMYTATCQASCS
Records with an inconclusive call do not appear. Calls of active or inactive are those of the source. Calls come from the whole dose curve; as a rule, active = well fitted curve in the direction sought with a large enough effect; inconclusive = small, poorly fitted or top-dose-only effect, or another doubt; inactive = no such curve, though single readings can be large or run the other way.
Please answer using one outcome listed in active, inactive

These recorded examples may help you get a feel for the data.
COMPOUND	ASSIGNED CLASS
COc1ccc2c(c1)CCC1C2CC[C@@]2(C)C1CC[C@@H]2NCCCCCCN1C(=O)C=CC1=O (stereo not given in full)	inactive
Cn1c(=O)c2c(nc(/C=C/c3cccc(Cl)c3)n2C)n(C)c1=O	inactive

Asked: What outcome does the record of this test show for "N[C@H](C(=O)O)[C@H](O)C(=O)O" ?
Given back: inactive

Asked: What outcome does the record of this test show for "Nc1ccc(-c2ccc3ccccc3n2)cc1" ?
Given back: inactive

Asked: What outcome does the record of this test show for "C=CC[C@H](N)C(=O)O" ?
Given back: inactive

Asked: What outcome does the record of this test show for "OC[C@H]1NC[C@@H](O)[C@@H]1O" ?
Given back: inactive

Asked: What outcome does the record of this test show for "CSC(=N)N" ?
Given back: inactive

Asked: What outcome does the record of this test show for "N[C@@H](Cc1ccc(F)cc1)C(=O)O" ?
Given back: inactive

Asked: What outcome does the record of this test show for NCCC1CCCC(CCN)N1 (stereo not given) ?
Given back: inactive

Asked: What outcome does the record of this test show for "CC(N)=O" ?
Given back: inactive

Asked: What outcome does the record of this test show for CCOC(=O)C12CC1/C(=N/O)c1ccccc1O2 (stereo not given) ?
Given back: inactive

* * *

assay: qHTS for Inhibitors of ATXN expression: Validation (AID 588378); conditions: cell-based ATXN2 expression reporter assay, luminescence; series mostly up to 57.1 µM; note: nearly all actives have a fitted effect of over 75% in size
Results filed as inconclusive are left out. Calls of active or inactive are those of the source. Calls follow the shape of the dose curve; as a rule, active = well fitted inhibition curve with a large enough effect; inconclusive = small, poorly fitted or top-dose-only effect; inactive = no such curve, though single readings can be large or run the other way.
Please answer using one outcome listed in class 1 = active, class 0 = inactive

These recorded examples may help you get a feel for the data.
COMPOUND	ASSIGNED CLASS
O=C(c1ccc2c(c1)OCCO2)N1CCCCC1	class 0
C=CC1(C)CC(=O)C2(O)C(C)(O1)C(OC(C)=O)C(O)C1C(C)(C)CCC(O)C12C (configuration not stated)	class 0
O=C(O)C1CCCNC1 (configuration not stated)	class 0
CN1CCCC1CCOC(C)(c1ccccc1)c1ccc(Cl)cc1 (configuration not stated)	class 1
Nc1nc2[nH]c(=O)cnc2c(=O)[nH]1	class 0
CC1C(=O)N(C)C(=O)c2nc[nH]c21 (configuration not stated)	class 0

Asked: What outcome does the record of this test show for "Nn1nnc2ccccc21" ?
Given back: class 0

Asked: What outcome does the record of this test show for "CC(C)NC[C@H](O)COc1ccc(CC(N)=O)cc1" ?
Given back: class 0

Asked: What outcome does the record of this test show for "CCCOC(=O)c1c(-c2ccccc2)nc(CC)c(C(=O)SCC)c1CCC" ?
Given back: class 0

Asked: What outcome does the record of this test show for "C=CCn1c(=O)c2c(nc(-c3ccc(S(=O)(=O)O)cc3)n2C)n(C)c1=O" ?
Given back: class 0

Asked: What outcome does the record of this test show for "O=C(O)C1=CCCN(CCON=C(c2ccccc2)c2ccccc2)C1" ?
Given back: class 0

Asked: What outcome does the record of this test show for "CC[C@@H]1Cc2cc(O)ccc2C2=C1c1ccc(O)cc1C[C@H]2CC" ?
Given back: class 1

* * *

molecular target: Ferritin light chain (Equus caballus) (UniProt P02791); test: qHTS Validation Assay for Identification of Novel General Anesthetics (AID 2323); conditions: horse apoferritin, anesthetic-site fluorescent probe displacement; series mostly up to 76.9 µM; note: % is set by controls: 0 for no effect and ±100 for the full control effect
Inconclusive results are not listed. Active and inactive are the calls of the source. Calls follow the shape of the dose curve; as a rule, active = well fitted curve in the direction sought with a large enough effect; inconclusive = small, poorly fitted or top-dose-only effect, or another doubt; inactive = no such curve, though single readings can be large or run the other way.
MEASURED ATTRIBUTE: outcome

Use these answered entries as a reference point.
MOLECULE	outcome
O=C(O)C1=CCCNC1	inactive
C[C@@H](NCCc1ccc(O)cc1)[C@@H](O)c1ccc(O)cc1	inactive
O=C1Cc2c([nH]c3ccc(Br)cc23)-c2ccccc2N1	inactive
C=CC1(C)CC(=O)C2(O)C(C)(O1)C(OC(C)=O)C(O)C1C(C)(C)CCC(O)C12C (configuration not stated)	inactive
CCC1(O)CC2CN(CCc3c([nH]c4ccccc34)[C@@](C(=O)OC)(c3cc4c(cc3OC)N(C)C3[C@]45CCN4CC=C[C@@](CC)([C@@H](OC(C)=O)[C@]3(O)C(=O)OC)[C@H]45)C2)C1 (some centres not stated)	inactive

outcome in this record for "COc1cc2c(CCNC(C)=O)c[nH]c2cc1O" : inactive

outcome in this record for C#CC(N)CCC(=O)O (configuration not stated) : inactive

outcome in this record for CC(C)C[C@H](NC(=O)C1OC1C(=O)O)C(=O)NCCCCN=C(N)N (some centres not stated) : inactive

outcome in this record for "CCCn1c(=O)c2[nH]c(C3CCCC3)nc2n(CCC)c1=O" : inactive

outcome in this record for "CC(N)=NCCCC[C@@H](N)C(=O)O" : inactive

outcome in this record for "CCN1C(=O)C=CC1=O" : inactive

outcome in this record for "Cn1c(=O)[nH]c2ncn(C)c2c1=O" : inactive

* * *

tested on: ECU; assay: qHTS profiling for inhibitors of Plasmodium falciparum proliferation (AID 504749); note: nearly all actives have a fitted effect of over 60% in size; details: P. falciparum in erythrocytes, SYBR Green DNA, 72 h; series mostly up to 28.7 µM
Records with an inconclusive call do not appear. The source made the active and inactive calls. Calls follow the shape of the dose curve; as a rule, active = well fitted inhibition curve with a large enough effect; inconclusive = small, poorly fitted or top-dose-only effect; inactive = flat fitted curve, though single readings scatter.
Please answer using one outcome listed in active, inactive

These recorded examples may help you get a feel for the data.
COMPOUND	ASSIGNED CLASS
CCCCCCCCCCCCCCC[C@H](O)[C@H](N)CO	inactive
CC(C)NC[C@H](O)COc1ccc(CC(N)=O)cc1	inactive
CCCCCCCCCCCCCCCCCCOC[C@H](COP(=O)([O-])OCC[N+](C)(C)C)OC	inactive

Now for another entry.
Asked: What outcome does the record of this test show for c1ccc(C2CN3CCSC3=N2)cc1 (centres undefined) ?
Given back: active

* * *

experiment: qHTS Assay for Identification of Small Molecule Antagonists for NFkB Signaling Pathway (AID 895); details: NFkB beta-lactamase reporter cells, FRET ratio 460/530, stimulated with 10 pM TNF alpha; series mostly up to 38.3 µM
Inconclusive results are not listed. Calls of active or inactive are those of the source. Calls come from the whole dose curve; as a rule, active = well fitted inhibition curve with a large enough effect in the signal ratio, with a control signal flat (not every such curve was filed as active); inconclusive = small, poorly fitted or top-dose-only effect, or effect the other way, or a change in a side signal; inactive = flat fitted curve, though single readings scatter; the % refers to the signal ratio.
Please answer using one outcome listed in yes (1) = active, no (0) = inactive

TEST SMILES	ASSIGNED CLASS
C/C(=C\c1ccc(C(=O)O)cc1)c1ccc2c(c1)C(C)(C)CCC2(C)C	yes (1)
CC(=O)NCCc1c[nH]c2ccc(O)cc12	no (0)
Cc1nc(N=Nc2cc(S(=O)(=O)O)c3cc([N+](=O)[O-])cc(S(=O)(=O)O)c3c2)c(COP(=O)(O)O)c(C=O)c1O	no (0)

Asked: What outcome does the record of this test show for "CNc1cc(NS(=O)(=O)c2ccc(N)cc2)nc(NC)n1" ?
Given back: no (0)

Asked: What outcome does the record of this test show for "N[C@H](C(=O)O)[C@H](O)C(=O)O" ?
Given back: no (0)

Asked: What outcome does the record of this test show for "CN[C@H](CC(=O)O)C(=O)O" ?
Given back: no (0)

Asked: What outcome does the record of this test show for "Cc1nc(N=Nc2ccc(C(=O)O)cc2)c(COP(=O)(O)O)c(C=O)c1O" ?
Given back: no (0)

Asked: What outcome does the record of this test show for "CC[C@H](NC(=O)c1c(C)c(-c2ccccc2)nc2ccccc12)c1ccccc1" ?
Given back: yes (1)

Asked: What outcome does the record of this test show for "CCSC(=N)N" ?
Given back: no (0)

Asked: What outcome does the record of this test show for "O=C(O)c1cccnc1C(=O)O" ?
Given back: no (0)

Asked: What outcome does the record of this test show for "Nc1ccc(-c2nc3ccc(-c4nc5ccc(N)cc5[nH]4)cc3[nH]2)cc1" ?
Given back: yes (1)

Asked: What outcome does the record of this test show for "CN(C)S(=O)(=O)c1ccc2c(c1)/C(=C/c1cc3c([nH]1)CCCC3)C(=O)N2" ?
Given back: yes (1)

Asked: What outcome does the record of this test show for "Nc1ccc(-c2ccc3ccccc3n2)cc1" ?
Given back: no (0)

Asked: What outcome does the record of this test show for "O=C1NC(=O)c2cc(Nc3ccccc3)c(Nc3ccccc3)cc21" ?
Given back: yes (1)

Asked: What outcome does the record of this test show for "CCN(c1nc(N)c(C(=O)N=C(N)N)nc1Cl)C(C)C" ?
Given back: no (0)

* * *

test: qHTS for inhibitors of adenylyl cyclases using a fission yeast platform: a pilot screen against the NCATS LOPAC library (AID 1347410);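 note: plate controls were DMSO vehicle for no effect and DPI positive control for full effect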; conditions: S. pombe CHP2027, fbp1-GFP fluorescence, 18 h, yeast expressing mammalian AC9 and human GNAS; series mostly up to 57.5 µM
The source made the active and inactive calls. Calls come from the whole dose curve; as a rule, active = well fitted curve in the direction sought with a large enough effect; inconclusive = small, poorly fitted or top-dose-only effect, or effect the other way, or another doubt; inactive = no such curve, though single readings can be large or run the other way.
MEASURED ATTRIBUTE: outcome

Use these answered entries as a reference point.
COMPOUND	outcome
N[C@H](C(=O)O)[C@H]1C[C@@H]1C(=O)O	inactive
C/C(=C\c1ccc(C(=O)O)cc1)c1ccc2c(c1)C(C)(C)CCC2(C)C	inactive
c1ccc2c(c1)CC(N1CCN(c3cccc4c3OCCO4)CC1)C2	inactive
C=C1C[C@@]23CC[C@H]4[C@@](C)(CCC[C@@]4(C)C(=O)O)[C@@H]2CC[C@]1(O)C3	inactive

outcome in this record for NC1C=CC=C(C(=O)O)C1 (stereo not drawn) : inactive

outcome in this record for C=CCN1CCc2c(cc(O)c(O)c2Cl)C(c2ccccc2)C1 (stereo not drawn) : inactive

outcome in this record for "CC(N)=O" : inactive

outcome in this record for "NOCC(=O)O" : inactive

outcome in this record for "N[C@H]1CONC1=O" : inactive

outcome in this record for COc1cc(C(O)CO)ccc1O (stereo not drawn) : inactive

Data credit: PubChem BioAssay (NCATS)
